- protocol: activity coefficient (dimensionless); of the first substance listed, at infinite dilution; xn = mol fraction of the nth substance listed
- condition_context: 338.15 K; 100 kPa; Liquid; Chromatography; x1 = 0
quantity: activity coefficient
Keep it simple and answer with nothing but the number.

Examples with their reported activity coefficient follow.
# compound, reading
measured = [
    ("CCCCC(C)=O [2-hexanone] + CCCC[P+](CC)(CCCC)CCCC.CCOP(=O)([O-])OCC", 1.15),
    ("Cc1cccc(C)c1 [1,3-dimethylbenzene] + CCCC[P+](CC)(CCCC)CCCC.CCOP(=O)([O-])OCC", 1.67),
    ("CCCCC [pentane] + CCCC[P+](CC)(CCCC)CCCC.CCOP(=O)([O-])OCC", 2.85),
    ("C=Cc1ccccc1 [styrene] + CCCC[P+](CC)(CCCC)CCCC.CCOP(=O)([O-])OCC", 0.975),
    ("C#CCCC [1-pentyne] + CCCC[P+](CC)(CCCC)CCCC.CCOP(=O)([O-])OCC", 0.762),
    ("CCCC(=O)CC [3-hexanone] + CCCC[P+](CC)(CCCC)CCCC.CCOP(=O)([O-])OCC", 1.21),
    ("CC(C)=O [acetone] + CCCC[P+](CC)(CCCC)CCCC.CCOP(=O)([O-])OCC", 0.827),
    ("CCC(=O)CC [pentan-3-one] + CCCC[P+](CC)(CCCC)CCCC.CCOP(=O)([O-])OCC", 1.02),
    ("CCOC(C)(C)C [2-ethoxy-2-methylpropane] + CCCC[P+](CC)(CCCC)CCCC.CCOP(=O)([O-])OCC", 2.6),
    ("Cc1ccccc1C [1,2-dimethylbenzene] + CCCC[P+](CC)(CCCC)CCCC.CCOP(=O)([O-])OCC", 1.52),
]

Form field activity coefficient, entry CCCCCCC [heptane] + CCCC[P+](CC)(CCCC)CCCC.CCOP(=O)([O-])OCC : 3.97

Just so you know, measured activity coefficient for C1CCCC1 [cyclopentane] + CCCC[P+](CC)(CCCC)CCCC.CCOP(=O)([O-])OCC came out at 1.8

// activity coefficient value for CCC(C)CC [3-methylpentane] + CCCC[P+](CC)(CCCC)CCCC.CCOP(=O)([O-])OCC : 3.12

Memo: c1ccccc1 [benzene] + CCCC[P+](CC)(CCCC)CCCC.CCOP(=O)([O-])OCC , reported activity coefficient: 0.863

# compound CCCOCCC [dipropyl ether] + CCCC[P+](CC)(CCCC)CCCC.CCOP(=O)([O-])OCC ; its activity coefficient = 2.55

Entry C1CCCCCC1 [cycloheptane] + CCCC[P+](CC)(CCCC)CCCC.CCOP(=O)([O-])OCC , activity coefficient reported as 2.42

The recorded activity coefficient for C#CCCCCC [1-heptyne] + CCCC[P+](CC)(CCCC)CCCC.CCOP(=O)([O-])OCC is 1.05

activity coefficient in this record for C1CCCCCCC1 [cyclooctane] + CCCC[P+](CC)(CCCC)CCCC.CCOP(=O)([O-])OCC : 2.74

// recorded activity coefficient for CCC(C)(C)OC [2-methoxy-2-methylbutane] + CCCC[P+](CC)(CCCC)CCCC.CCOP(=O)([O-])OCC : 2.07

The compound listed as CCCCCC [hexane] + CCCC[P+](CC)(CCCC)CCCC.CCOP(=O)([O-])OCC has a reported activity coefficient of 3.33

Lab book: activity coefficient of C=CCCCCCCCC [1-decene] + CCCC[P+](CC)(CCCC)CCCC.CCOP(=O)([O-])OCC noted as 5.06

Looking up CCC(C)(C)C [2,2-dimethylbutane] + CCCC[P+](CC)(CCCC)CCCC.CCOP(=O)([O-])OCC , I see its activity coefficient listed as 3.27

get_value(item= C=CCCCCCC [oct-1-ene] + CCCC[P+](CC)(CCCC)CCCC.CCOP(=O)([O-])OCC , readout=activity coefficient) returns 3.6

activity coefficient reading for CCCCCCCCC [nonane] + CCCC[P+](CC)(CCCC)CCCC.CCOP(=O)([O-])OCC : 5.6

Noted for CCc1ccccc1 [ethylbenzene] + CCCC[P+](CC)(CCCC)CCCC.CCOP(=O)([O-])OCC : its activity coefficient reads 1.52

So, CCC[N+](=O)[O-] [1-nitropropane] + CCCC[P+](CC)(CCCC)CCCC.CCOP(=O)([O-])OCC ? Its activity coefficient was 0.507

---

- protocol: activity coefficient (dimensionless); of the first substance listed, at infinite dilution; xn = mol fraction of the nth substance listed
- condition_context: 368.15 K; 100 kPa; Liquid; Chromatography; x1 = 0
Here, each record is paired with measured activity coefficient data.
Just the number.

Reference set, count: 4
# molecule, reading
measured = [
    ("Cc1cccc(C)c1 [1,3-dimethylbenzene] + CCCC[P+](CC)(CCCC)CCCC.CCOP(=O)([O-])OCC", 1.59),
    ("C=CCCC [1-pentene] + CCCC[P+](CC)(CCCC)CCCC.CCOP(=O)([O-])OCC", 2.09),
    ("C=CCCCCCCCC [1-decene] + CCCC[P+](CC)(CCCC)CCCC.CCOP(=O)([O-])OCC", 4.69),
    ("C=Cc1ccccc1 [styrene] + CCCC[P+](CC)(CCCC)CCCC.CCOP(=O)([O-])OCC", 0.987),
]

// next entry
The reported activity coefficient of the molecule c1ccccc1 [benzene] + CCCC[P+](CC)(CCCC)CCCC.CCOP(=O)([O-])OCC was 0.84

---

- protocol: activity coefficient (dimensionless); of the first substance listed, at infinite dilution; xn = mol fraction of the nth substance listed
- condition_context: 338.15 K; 100 kPa; Liquid; Chromatography; x1 = 0
Let's look at some compounds and their measured activity coefficient.
The response must contain the number and no unit.

For orientation, consider the following solved cases.
# compound, quantity, reading
measured = [
    ("C1=CCCCC1 [cyclohexene] + CCCC[P+](CC)(CCCC)CCCC.CCOP(=O)([O-])OCC", "activity coefficient", 1.69),
    ("CO [methanol] + CCCC[P+](CC)(CCCC)CCCC.CCOP(=O)([O-])OCC", "activity coefficient", 0.022),
    ("C#CCCCC [1-hexyne] + CCCC[P+](CC)(CCCC)CCCC.CCOP(=O)([O-])OCC", "activity coefficient", 0.893),
    ("CC#N [acetonitrile] + CCCC[P+](CC)(CCCC)CCCC.CCOP(=O)([O-])OCC", "activity coefficient", 0.465),
    ("CC1CCCCC1 [methylcyclohexane] + CCCC[P+](CC)(CCCC)CCCC.CCOP(=O)([O-])OCC", "activity coefficient", 2.57),
]

The recorded activity coefficient for CC(C)OC(C)C [diisopropyl ether] + CCCC[P+](CC)(CCCC)CCCC.CCOP(=O)([O-])OCC is 2.75

---

- protocol: activity coefficient (dimensionless); of the first substance listed, at infinite dilution; xn = mol fraction of the nth substance listed
- condition_context: 328.15 K; 100 kPa; Liquid; Chromatography; x1 = 0
quantity: activity coefficient
API note: the answer field is a bare number with no unit suffix.

Guide cases for activity coefficient, answers given:
# compound, quantity, reading
data = [
    ("CCCOCCC [dipropyl ether] + CCCC[P+](CC)(CCCC)CCCC.CCOP(=O)([O-])OCC", "activity coefficient", 2.59),
    ("c1ccsc1 [thiophene] + CCCC[P+](CC)(CCCC)CCCC.CCOP(=O)([O-])OCC", "activity coefficient", 0.58),
    ("C1=CCCCC1 [cyclohexene] + CCCC[P+](CC)(CCCC)CCCC.CCOP(=O)([O-])OCC", "activity coefficient", 1.72),
    ("CCOC(C)(C)C [2-ethoxy-2-methylpropane] + CCCC[P+](CC)(CCCC)CCCC.CCOP(=O)([O-])OCC", "activity coefficient", 2.66),
    ("Cc1ccccc1C [1,2-dimethylbenzene] + CCCC[P+](CC)(CCCC)CCCC.CCOP(=O)([O-])OCC", "activity coefficient", 1.55),
]

Now examine the next entry.
Briefly, activity coefficient measured for CCC(C)(C)OC [2-methoxy-2-methylbutane] + CCCC[P+](CC)(CCCC)CCCC.CCOP(=O)([O-])OCC : 2.09

---

- protocol: activity coefficient (dimensionless); of the first substance listed, at infinite dilution; xn = mol fraction of the nth substance listed
- condition_context: 358.15 K; 100 kPa; Liquid; Chromatography; x1 = 0
Assign True to entries whose activity coefficient meets or exceeds 2; assign False to the rest.

# compound, group
measured = [
    ("CCCCCCCCCC [decane] + CCCC[P+](CC)(CCCC)CCCC.CCOP(=O)([O-])OCC", "True"),
]

Query block: Hi, just wondering whether CCC(C)CC [3-methylpentane] + CCCC[P+](CC)(CCCC)CCCC.CCOP(=O)([O-])OCC shows activity coefficient of 2 or higher.
Result block: True

Query block: Could you verify whether the entry CC(C)=O [acetone] + CCCC[P+](CC)(CCCC)CCCC.CCOP(=O)([O-])OCC shows activity coefficient of no less than 2?
Result block: False
